- target_desc: full-length human RORγt (Homo sapiens, UniProt P51449)
- Construct: expressed in transfected cells; host or cells: HEK293T, transiently transfected with pCMV-BD-ROR
- Sequence (P51449 1-497 isoform P51449-2): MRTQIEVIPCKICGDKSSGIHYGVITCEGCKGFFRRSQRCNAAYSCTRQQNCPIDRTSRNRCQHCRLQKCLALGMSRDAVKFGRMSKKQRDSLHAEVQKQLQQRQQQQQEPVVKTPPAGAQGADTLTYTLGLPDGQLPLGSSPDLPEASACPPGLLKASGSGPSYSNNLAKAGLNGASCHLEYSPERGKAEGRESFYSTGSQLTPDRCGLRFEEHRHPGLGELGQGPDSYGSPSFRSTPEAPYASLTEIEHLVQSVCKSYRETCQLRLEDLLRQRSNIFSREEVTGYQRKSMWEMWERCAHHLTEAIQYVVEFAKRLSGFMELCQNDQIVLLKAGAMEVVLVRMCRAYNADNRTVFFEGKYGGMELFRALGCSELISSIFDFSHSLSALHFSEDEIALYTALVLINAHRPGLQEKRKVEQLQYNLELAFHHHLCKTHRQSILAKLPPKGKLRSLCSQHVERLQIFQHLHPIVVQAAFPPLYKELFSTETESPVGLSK
- assay_notes: RORγt (full-length human) Reporter Assay, Conditions A
- Assay type: cell-based
- condition_info: read-out: RORγt (FL) Reporter Assay A, % inhibition @ 6 μM; 6 μM compound
reported_metric: inhibition at 6 µM (%)
Give bare numbers, in %.

Ask | Quote full-length human RORγt (Homo sapiens, UniProt P51449) inhibition at 6 µM for entry C[C@H](NS(=O)(=O)c1ccc(-c2sc(-c3noc(C(C)(C)O)n3)nc2C(=O)N2CCC(F)(F)CC2)c(C(F)F)c1F)C(F)(F)F .
Reply | 108

Ask | Check full-length human RORγt (Homo sapiens, UniProt P51449) data and give inhibition at 6 µM for C[C@H](NS(=O)(=O)c1ccc(-c2sc(-c3nnc(CC(C)(C)O)o3)nc2C(=O)N2CCC(F)(F)C2)c(Cl)c1Cl)C(F)(F)F .
Reply | 109

Ask | // fetch inhibition at 6 µM for CC[C@H](NS(=O)(=O)c1ccc(-c2sc(-c3noc(CC(C)(C)C(=O)O)n3)nc2C(=O)N2CC(F)(F)C[C@@H]2C)c(C(F)F)c1Cl)C(F)(F)F ; system: full-length human RORγt (Homo sapiens, UniProt P51449)
Reply | 97

Ask | Enter measured inhibition at 6 µM, system full-length human RORγt (Homo sapiens, UniProt P51449), for the compound shown: C[C@H]1CCCCN1C(=O)c1nc(-c2nnc(CC(C)(C)C(=O)O)o2)sc1-c1ccc(C(O)(C(F)(F)F)C(F)(F)F)c(Cl)c1Cl
Reply | 102

Ask | Please indicate recorded inhibition at 6 µM of CC(C)(O)c1nnc(-c2nc(C(=O)N3CCC(F)(F)CC3)c(-c3ccc(S(=O)(=O)NC(C)(C)C(F)(F)F)c(F)c3Cl)s2)o1 measured with full-length human RORγt (Homo sapiens, UniProt P51449).
Reply | 107

Please report inhibition at 6 µM for every entry that follows.
1. CC1CCN(C(=O)c2nc(-c3nnc(C(N)=O)o3)sc2-c2ccc(S(=O)(=O)N[C@@H](C)C(F)(F)F)c3ccccc23)CC1
2. CC(C)(O)c1nnc(-c2nc(C(=O)N3CCC(F)(F)CC3)c(-c3ccc(C(O)C4(C(F)(F)F)CC4)c(Cl)c3Cl)s2)o1 (stereo not drawn)
3. CCN(CC)C(=O)c1nc(-c2nnc(CC(C)(C)O)o2)sc1-c1ccc(S(=O)(=O)N[C@@H](C)C(F)(F)F)c(Cl)c1Cl
4. CC[C@H](NS(=O)(=O)c1ccc(-c2sc(-c3nnc(C(C)(C)O)o3)nc2C(=O)N2CCC(F)CC2)c(Cl)c1)C(F)(F)F

Reply |
[106, 47, 107, 104]

Give one value of inhibition at 6 µM per listed compound.
1. CC1(NS(=O)(=O)c2ccc(-c3sc(-c4nnc(C(C)(C)O)o4)nc3C(=O)N3CCC(F)(F)CC3)c(Cl)c2Cl)CC1
2. CC[C@H](NS(=O)(=O)c1ccc(-c2sc(-c3nnc(C(C)(C)O)o3)nc2C(=O)N2CCC(F)(F)CC2)c(C(F)F)c1F)C(F)(F)F
3. C[C@H](NS(=O)(=O)c1ccc(-c2sc(-c3nnc(CC(C)(C)O)o3)nc2C(=O)N2CC(F)(F)C[C@@H]2C)c(Cl)c1Cl)C(F)(F)F

Reply |
1: 107; 2: 110; 3: 107

For each of the compounds below, state inhibition at 6 µM.
1. CC[C@H](NS(=O)(=O)c1ccc(-c2sc(-c3nnc(C(C)(C)O)o3)nc2C(=O)N2CC(F)(F)C2)c(Cl)c1)C(F)(F)F
2. C[C@H](NS(=O)(=O)c1ccc(-c2sc(-c3noc(C(C)(C)O)n3)nc2C(=O)N2CCC(F)CC2)c(C(F)F)c1F)C(F)(F)F

Reply |
90
103

Hi, could you look up inhibition at 6 µM for each item in my list?
1. CC[C@H](NS(=O)(=O)c1ccc(-c2sc(-c3nnc(CC(C)(C)C(=O)O)o3)nc2C(=O)N2CCCC[C@@H]2C)c(Cl)c1Cl)C(F)(F)F
2. C[C@H](NS(=O)(=O)c1ccc(-c2sc(-c3cc(CC(C)(C)C(=O)O)on3)nc2C(=O)N2CCC(F)(F)CC2)c(C(F)F)c1F)C(F)(F)F
3. CCCN(C)C(=O)c1nc(-c2nnc(C(C)(C)O)o2)sc1-c1ccc(S(=O)(=O)N[C@@H](C)C(F)(F)F)c(Cl)c1Cl

Reply |
1. 104
2. 103
3. 110

Could you tell me inhibition at 6 µM for each of these compounds? They are listed below.
1. Cc1c(S(=O)(=O)N[C@@H](C)C(F)(F)F)ccc(-c2sc(-c3nnc(C(C)(C)O)o3)nc2C(=O)N2CCC(F)(F)CC2)c1F
2. C[C@H](NS(=O)(=O)c1ccc(-c2sc(-c3cc(CC(C)(C)C(=O)O)on3)nc2C(=O)N2CC(F)(F)C[C@@H]2C)c(C(F)F)c1F)C(F)(F)F

Reply |
107
104

Respectfully, I request inhibition at 6 µM for each entry included below.
1. CCCN(CC)C(=O)c1nc(-c2nnc(C(C)(C)O)o2)sc1-c1ccc(S(=O)(=O)N[C@@H](C)C(F)(F)F)c(Cl)c1Cl
2. C[C@H](NS(=O)(=O)c1ccc(-c2sc(-c3nnc(CS(C)(=O)=O)o3)nc2C(=O)N2CCC(F)(F)CC2)c(Cl)c1Cl)C(F)(F)F
3. CCN(CC)C(=O)c1nc(-c2nnc(CC(C)(C)C(=O)O)o2)sc1-c1ccc(S(=O)(=O)N[C@@H](C)C(F)(F)F)c(Cl)c1Cl
4. CC(C)(O)c1nnc(-c2nc(C(=O)N3CCC(F)(F)CC3)c(-c3ccc(S(=O)(=O)NC4(C(F)F)CC4)c(F)c3Cl)s2)o1

Reply |
1. 108
2. 101
3. 89
4. 105

Ask | Enter inhibition at 6 µM (test system full-length human RORγt (Homo sapiens, UniProt P51449)) for C[C@H](NC(=O)c1cc(-c2sc(-c3nnc(C(C)(C)O)o3)nc2C(=O)N2CCC(F)CC2)cc(C2(C)CC2)c1)C(F)(F)F
Reply | 101
